# IC50 per record follows
tested on: DU-145; assay: cells; assay type: functional, cell-based; conditions: Homo sapiens
Description: SANGER: Inhibition of human DU-145 cell growth in a cell viability assay.

{"columns": ["compound_smiles", "IC50"],
 "data": [
  ["NC(=O)c1ncn([C@@H]2O[C@H](COP(=O)(O)O)[C@@H](O)[C@H]2O)c1N", "> 2000 µM"],
  ["O=c1[nH]c2ccccc2n1C1CCN(Cc2ccc(-c3nc4cc5[nH]cnc5cc4nc3-c3ccccc3)cc2)CC1", "> 2.56 µM"],
  ["CCNC(=O)c1noc(-c2cc(C(C)C)c(O)cc2O)c1-c1ccc(CN2CCOCC2)cc1", "0.0129 µM"],
  ["COc1cc(Nc2c(C#N)cnc3cc(OCCCN4CCN(C)CC4)c(OC)cc23)c(Cl)cc1Cl", "> 2 µM"],
  ["C/C(O)=C(\\C#N)C(=O)Nc1cc(Br)ccc1Br", "> 16 µM"],
  ["N#C/C(=C1/Nc2ccccc2S1)c1ccnc(NCCc2cccnc2)n1", "> 8 µM"],
  ["Fc1cc(-c2cc[nH]/c(=N/c3ccc(-n4cnc(N5CCOCC5)n4)cc3)n2)cc(N2CCOCC2)c1", "0.48 µM"]
]}

---

test system: TE-15; test: cells; assay type: functional, cell-based; conditions: Homo sapiens;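 note: cell viability readout of growth inhibition in TE-15 cells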
Description: SANGER: Inhibition of human TE-15 cell growth in a cell viability assay.
pIC50: −log10 of the molar value.
test_readout: pIC50

{"columns": ["compound", "test_readout", "comparator", "endpoint_result"],
 "data": [
  ["CCNc1cc(N[C@H]2CC[C@@H](O)CC2)nc(Nc2ccc3c(ccn3Cc3ccccc3)c2)n1", "pIC50", "=", 5.29],
  ["Cc1n[nH]c2ccc(-c3cncc(OC[C@@H](N)Cc4c[nH]c5ccccc45)c3)cc12", "pIC50", "=", 7.23],
  ["COc1cc(C)c(Sc2cnc(NC(=O)c3ccc(CNC(C)C(C)(C)C)cc3)s2)cc1C(=O)N1CCN(C(C)=O)CC1 (stereo not given)", "pIC50", "<", 4.99],
  ["CO[C@@]12[C@H](COC(N)=O)C3=C(C(=O)C(C)=C(N)C3=O)N1C[C@@H]1N[C@@H]12", "pIC50", "=", 7.13],
  ["CCNC(=O)c1noc(-c2cc(C(C)C)c(O)cc2O)c1-c1ccc(CN2CCOCC2)cc1", "pIC50", "=", 7.87]
]}

---

Each entry below carries its reported pIC50.
system: H4; experiment: cells; assay type: functional, cell-based; conditions: Homo sapiens
Description: SANGER: Inhibition of human H4 cell growth in a cell viability assay.
pIC50: −log10 of the molar value.
test_readout: pIC50

{"columns": ["compound", "subject_of_test", "comparator", "endpoint_result"],
 "data": [
  ["NC(=O)c1ncn([C@@H]2O[C@H](COP(=O)(O)O)[C@@H](O)[C@H]2O)c1N", "H4", "<", 2.70],
  ["C[C@]12O[C@H](C[C@]1(O)CO)n1c3ccccc3c3c4c(c5c6ccccc6n2c5c31)CNC4=O [LESTAURTINIB]", "H4", "=", 7.87],
  ["C[C@]1(c2nc3c(C(N)=O)cccc3[nH]2)CCCN1 [VELIPARIB]", "H4", "<", 5.30],
  ["CCCS(=O)(=O)Nc1ccc(F)c(C(=O)c2c[nH]c3ncc(Cl)cc23)c1F [PLX-4720]", "H4", "=", 5.21],
  ["N#C/C(=C1/Nc2ccccc2S1)c1ccnc(NCCc2cccnc2)n1", "H4", "<", 5.10],
  ["CC(=O)c1c(C)c2cnc(Nc3ccc(N4CCNCC4)cn3)nc2n(C2CCCC2)c1=O [PALBOCICLIB]", "H4", "=", 5.76]
]}

Values were extracted from ChEMBL document CHEMBL1201861.
